For each entry below, report its Percent Effect value.
Target: Ubiquitin-activating enzyme e1, putative (Leishmania donovani (strain BPK282A1)) (UniProt E9BSI1)
Sequence (whole entry): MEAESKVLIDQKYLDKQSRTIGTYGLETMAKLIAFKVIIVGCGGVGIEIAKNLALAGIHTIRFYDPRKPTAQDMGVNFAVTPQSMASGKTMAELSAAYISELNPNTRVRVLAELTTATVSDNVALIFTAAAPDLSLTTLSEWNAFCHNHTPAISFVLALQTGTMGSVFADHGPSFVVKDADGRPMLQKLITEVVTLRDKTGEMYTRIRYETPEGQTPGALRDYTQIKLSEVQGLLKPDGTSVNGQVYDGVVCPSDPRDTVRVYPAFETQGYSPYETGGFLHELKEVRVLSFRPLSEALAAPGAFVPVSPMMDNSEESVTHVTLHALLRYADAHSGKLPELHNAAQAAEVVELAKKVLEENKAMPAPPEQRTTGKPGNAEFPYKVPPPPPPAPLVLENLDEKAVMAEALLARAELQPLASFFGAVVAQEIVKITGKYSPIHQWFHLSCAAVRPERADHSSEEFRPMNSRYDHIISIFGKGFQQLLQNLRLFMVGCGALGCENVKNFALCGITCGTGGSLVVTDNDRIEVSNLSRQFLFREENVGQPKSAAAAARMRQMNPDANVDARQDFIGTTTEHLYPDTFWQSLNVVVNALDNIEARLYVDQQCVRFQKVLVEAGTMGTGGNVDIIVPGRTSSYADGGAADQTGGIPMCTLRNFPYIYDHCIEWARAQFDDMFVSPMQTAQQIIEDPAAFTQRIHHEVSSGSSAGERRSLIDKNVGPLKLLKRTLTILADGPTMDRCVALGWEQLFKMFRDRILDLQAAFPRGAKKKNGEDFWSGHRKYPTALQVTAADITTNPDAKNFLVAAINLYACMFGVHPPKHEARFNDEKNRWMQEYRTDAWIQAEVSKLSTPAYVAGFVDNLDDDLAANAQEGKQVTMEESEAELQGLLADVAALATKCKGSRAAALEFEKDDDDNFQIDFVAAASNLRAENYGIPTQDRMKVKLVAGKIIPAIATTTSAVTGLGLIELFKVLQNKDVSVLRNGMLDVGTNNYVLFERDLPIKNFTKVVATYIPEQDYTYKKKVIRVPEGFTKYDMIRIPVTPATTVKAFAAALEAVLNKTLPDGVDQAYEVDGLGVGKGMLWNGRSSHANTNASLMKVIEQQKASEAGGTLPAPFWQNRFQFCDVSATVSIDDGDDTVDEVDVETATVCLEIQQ
Experiment: Leishmania donovani Ubiquitin Activating Enzyme (LdE1)
Assay type: functional
Set-up: scale not given: direction of the effect not stated beside the values
Details: 30 µM
Potency and affinity values are given separately.
Write the number in % without appending the unit.

// Percent Effect value for COCC1CN(Cc2ccc(C)o2)Cc2nnn(CC3CC3)c21 (configuration not stated) : 2.6

`COc1ccc2c(c1)C1(CCN(Cc3ccoc3)CC1)N(C)CC2` has a reported Percent Effect of 5.2

Record O=C(NCc1cccnc1)C1=NOC2(CCN(S(=O)(=O)C3CC3)C2)C1 (configuration not stated) , field Percent Effect: 13.3

Record CN(C)CC1CN(Cc2cccc(C(=O)N(C)C)c2)CCO1 (configuration not stated) , field Percent Effect: 20.8

Query Cc1cncc(C2CCCN(C(=O)c3scnc3C)C2)n1 (configuration not stated) yields Percent Effect of 1.35

Data point: `CCNC(=O)N(C)Cc1ccc(SC)c(OC)c1` ; Percent Effect = 21.6

Value of Percent Effect reported for the compound `O=C(NCC1CC1)[C@H]1C[C@@H]2CCN(Cc3nccs3)C[C@@H]2O1` is 8.11

Form: compound = O=C(c1cccnc1O)N(Cc1ccsc1)CC1CCCO1 (configuration not stated) ; Percent Effect = 13.5

Record COCCn1cc2c(n1)C(CNCc1ccco1)OCC2 (configuration not stated) . Reported Percent Effect: -2.7

Query `CN(C)CCNC(=O)c1cnc2c(c1)nc(-c1ccccc1Cl)n2C` yields Percent Effect of 8.11

Value of measured Percent Effect for the entry O=C(c1cccc(Cn2ccnc2)c1)N1CCCC(n2ccnc2)C1 (configuration not stated) : 16.2

Please fill in: Percent Effect reported for O=C1CC(c2ccccc2F)c2c(n3ccsc3nc2=O)N1 (configuration not stated) = 9.33

The compound identified as CC(C)c1noc(C(C)N2CCN(CCN3CCCC3=O)CC2)n1 (configuration not stated) registered its Percent Effect at 5.41

CCN(C(=O)CN(C)C(c1cccc(F)c1)c1ccccn1)C1CC1 (configuration not stated) yielded Percent Effect of -5.2

What the record says about CN1CC(=O)N(c2cccnc2)CC12CCN(C(=O)c1cccnc1)C2 (configuration not stated) : Percent Effect is 10.7

Short answer for `CN(CCC#N)C(=O)CCOc1cccc(F)c1` : Percent Effect was 10.5

Summary for this compound, `COC(=O)c1cccc(OCCn2nc(-c3cccs3)oc2=O)c1` : Percent Effect is -5.41

The measured Percent Effect associated with `CN(CCCc1ccccc1)Cc1nc2c(cnn2C)c(=O)[nH]1` reads 8.11

// O=C(Nc1nncs1)NC1CCc2ccccc21 (configuration not stated) : Percent Effect value = 5.48

Documented Percent Effect of Cc1nc(CN2CCCC(N(C)CCc3cccs3)C2)no1 (configuration not stated) : 12.5

Short answer for `O=C(NCCn1ccnc1)c1cccc(F)c1` : Percent Effect was 18.4

GET /value?item= Cc1cc(CNC(=O)NC(C)c2ccncc2)no1 (configuration not stated) &field=Percent Effect returns 7.79

Entry CC(OCC(F)(F)F)C(=O)N1CCN(S(C)(=O)=O)CC1 (configuration not stated) ; Percent Effect = 8.22

Data point: `O=C(Nc1ccccc1OC(F)F)C1=NN(c2ccccc2)C(=O)CN1` ; Percent Effect = 10.1

Looking up `CCn1ccnc1CN1CCN(Cc2ccc(C#N)cc2)CC1` , I see its Percent Effect listed as 21.1

Sample Cc1ccc(N2CCCC(NCc3cscn3)C2)nn1 (configuration not stated) ; Percent Effect observed: 13.5

# Percent Effect (compound: Cc1cc(CC(=O)N(CC2CN(C)CCO2)c2nccs2)no1 (configuration not stated) ) is 0

Value of measured Percent Effect for the entry Cn1cc(N2CCCC(NCc3cccc4c3OCCCO4)C2)cn1 (configuration not stated) : 16.2

In plain terms, `CCC(=O)N1CC[C@@H](c2ccc3ccccc3c2)[C@H](O)C1` has a documented Percent Effect of 8

Value of Percent Effect reported for the compound Cc1cc(C)n(CC2CN(CC(=O)NC3CCCC3)CCO2)n1 (configuration not stated) is 7.79

Form: compound = O=C(CC1CN(Cc2ccccc2)CCO1)NC1CCCC1 (configuration not stated) ; Percent Effect = 24.3

Just so you know, measured Percent Effect for `NC(=O)C1CCN(C(=O)CCn2ccc3cc(Br)ccc32)CC1` came out at 4.17
